Experiment Summary: chemical genetic growth profiling, strain panel (AID 1159580);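 note: tested at 20 µM; growth read once vehicle control cultures reached saturation at 30 °C; 1 = growth at the plate median or of vehicle wells; lower values mean less growth of the strain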
Measurement Parameters: S. cerevisiae deletion strains, growth OD, locus YPL051W, strain arl3, active compounds read low
Among all 5,500 compounds or so, about 2,000 (36%) were called active. Inconclusive results (about 18%) are left out. This is one part of the list.
Observation Type: normalized growth
Output spec: single numeric token, no unit.

NS(=O)(=O)c1cc2c(cc1Cl)NCNS2(=O)=O : 1
CON : 1.04

Given the compound CC(=O)c1ccc[nH]1 , what is its reported normalized growth?
1.02

Given the compound CC(C)[C@@H]1CC[C@@H](C)CC1=O , what is its reported normalized growth?
0.998

Given the compound C=C(C)C1Cc2c(ccc3c(=O)c4c(oc23)COc2cc(OC)c(OC)cc2-4)O1 (stereo unspecified) , what is its reported normalized growth?
1.01

Given the compound O=C(O)c1cc(=O)c2ccccc2[nH]1 , what is its reported normalized growth?
0.997

Given the compound CC1(C)CC23C(=O)CCC(O)C2(C)CCC13 (stereo unspecified) , what is its reported normalized growth?
0.987

Given the compound COc1ccc(-c2c(O)c3c(OC)c4c(cc3oc2=O)OC(C)(C)C=C4)cc1 , what is its reported normalized growth?
0.951

Given the compound COc1cc([C@@H]2c3cc4c(cc3[C@H](O)[C@H]3COC(=O)[C@H]23)OCO4)cc(OC)c1OC , what is its reported normalized growth?
1.01

Given the compound C[N+]12CCC(CC1)C(OC(=O)C(O)(c1ccccc1)c1ccccc1)C2 (stereo unspecified) , what is its reported normalized growth?
0.987

Given the compound CC(=O)NC1C(O)OC(COS(=O)(=O)O)C(OC2OC(C(=O)O)C(OC3OC(CO)C(OC4OC(C(=O)O)C(O)C(O)C4OS(=O)(=O)O)C(OS(=O)(=O)O)C3NS(=O)(=O)O)C(O)C2OS(=O)(=O)O)C1O (stereo unspecified) , what is its reported normalized growth?
0.977

---

Experiment Summary: chemical genetic growth profiling, strain panel (AID 1159580);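 note: tested at 20 µM; growth read once vehicle control cultures reached saturation at 30 °C; 1 = growth at the plate median or of vehicle wells; lower values mean less growth of the strain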
Measurement Parameters: S. cerevisiae deletion strains, growth OD, locus YLR039C, strain RIC1
About 2,000 (36%) of roughly 5,500 compounds were called active. Not shown: some 18% with an inconclusive outcome. Rule as the data show it: active = normalized growth mostly below about 0.91 (no sharp cut-off); inconclusive = no clear call, values can overlap the other calls; inactive = mostly above about 0.92. This is one part of the list.
# output must be one of Y = active, N = inactive

Look over these answered cases.
CC(C)=CCC/C(C)=C/CO : N
Cn1nccc1NS(=O)(=O)c1ccc(C(C)(C)C)cc1 : N
Cc1ccc(S(=O)(=O)N2CCCCCC2)cc1 : N
CC(=O)Nc1ccc(S(=O)(=O)NCCCN2CCN(Cc3ccccc3)CC2)cc1Cl : N
O=S(=O)(c1ccc(Cl)cc1)N1CCN(Cc2ccccc2)CC1 : N
CCOC(=O)CCC(C#N)(c1ccc(Cl)cc1)N1CCOCC1 (configuration not stated) : N
O=C(Nc1cc(-c2ccccc2)[nH]n1)c1ccccc1 : Y
Cc1ccc(S(=O)(=O)N2CCN(CCOc3ccccc3)CC2)cc1 : N
Cc1ccc(S(=O)(=O)N2CCC(C(c3ccccc3)c3ccccc3)CC2)cc1 : N
C/C(=C\CO)CC[C@H](C)CCC[C@H](C)CCCC(C)C : N

Give the logged outcome of this assay for the following compound: CCOC(=O)c1ccc(N2CCOCC2)c(N=Cc2cc(Cl)ccc2O)c1
Y

Give the logged outcome of this assay for the following compound: O=c1c(O)cccc2cc(O)c(O)c(O)c12
Y

Entry source: PubChem BioAssay AID1159580
